# System: OVCAR-8 ovarian
# TEST: NCI-60 one-dose screen, 48 h (100 = growth as untreated, 0 = no growth, -100 = all killed)
# CONDITION_CONTEXT: 10 µM unless noted
# Experimental: Growth inhibition of the OVCAR-8 human tumor cell line is measured as a screen for anti-cancer activity. Cells are grown in 96 well plates and exposed to the test compound for 48 hours. Compounds are tested at a single concentration, which is 10^-5 M for most compounds. The reported endpoint is percent growth (GI% or GIPRCNT), where numbers from 0 - 100% represent growth inhibition, and numbers from -100% - 0 represent cell death. For example, a value of 40 represents 60% growth inhibition. […]
The panel holds about 83,000 compounds, 20% with a hit somewhere; the sample as a whole holds those more often. The source made the active and inactive calls. How the source made its calls: active means growth percent below 10; inactive means the rest.
PROPERTY: growth

COMPOUND_SMILES: O=C(Nc1ccc(Cl)cc1)Oc1c(Cl)c(Cl)c(Cl)c(Cl)c1Cl
RESULT: 99.9% (inactive)

COMPOUND_SMILES: Cc1ccc(C(=O)c2ccc(CC(=O)N=Nc3c(O)[nH]c4ccc(Br)cc34)n2C)cc1
RESULT: 94.9% (inactive)

COMPOUND_SMILES: O=C(Cn1nnc2ccccc21)N/N=C/c1c[nH]c2ccccc12
RESULT: 44.8% (inactive)

COMPOUND_SMILES: C#CCn1cnc2cnc(Nc3cccc(NC(=O)C=C)c3)nc21
RESULT: 84.1% [6.25 µM] (inactive)

COMPOUND_SMILES: CCN1C2CCC1/C(=C\c1ccc(F)cc1)C(=O)/C2=C/c1ccc(F)cc1
RESULT: 12.5% (inactive)

---

# Tested on: OVCAR-8 ovarian
# TEST: NCI-60 one-dose screen, 48 h
# CONDITION_CONTEXT: 10 µM unless noted
The panel holds about 83,000 compounds, 20% with a hit somewhere; the sample as a whole holds those more often. Activity calls are given as the source filed them. Rule for the calls: active = growth percent below 10; inactive = the rest.
Outcomes: active, inactive

COMPOUND: C#COc1cccc(Nc2ncnc3cc(NC(=O)[C@@H](C)Cl)ccc23)c1
CLASS_LABEL: inactive

COMPOUND: NC1(CO)COC(c2ccccc2)OC1 (centres undefined)
CLASS_LABEL: inactive

COMPOUND: Cc1ccc(C=C2C(=O)NC(=O)NC2=O)cc1
CLASS_LABEL: inactive

COMPOUND: CN1CCN(C(=O)C(C)(C)c2ccc(C(=O)Nc3cn4cc(-c5ccncc5)ccc4n3)cc2)CC1
CLASS_LABEL: inactive

COMPOUND: Cc1ccc2c(-c3nnc(N)s3)cc(=O)oc2c1C
CLASS_LABEL: inactive

COMPOUND: CCN1C(=O)N(CC)C2C1NN=c1s/c(=C\c3ccc(C(F)(F)F)cc3)c(=O)n12 (centres undefined)
CLASS_LABEL: active

COMPOUND: C[C@@H]1O[C@@H](O[C@@H]2C[C@H](c3ccc4c(c3O)C(=O)C3=C(C4=O)[C@@]4(O)C(=O)C[C@](C)(O)C[C@@]4(O)C=C3)O[C@H](C)[C@H]2O)CC[C@@H]1O[C@H]1C[C@@H](O)[C@H](O)[C@@H](C)O1
CLASS_LABEL: inactive

COMPOUND: CN(C)CCCC1(c2ccc(F)cc2)OCc2cc(-c3cc4ccccc4s3)ccc21 (centres undefined)
CLASS_LABEL: active

COMPOUND: O=C(CCCCCCN1CC(=O)N2[C@H](c3ccc(Br)cc3)c3[nH]c4ccccc4c3C[C@@H]2C1=O)NO
CLASS_LABEL: inactive

COMPOUND: O=C(Nc1ccccc1O)c1ccc(CNC(=O)c2ccsc2Nc2ccnc(C(F)(F)F)c2)cc1
CLASS_LABEL: inactive

COMPOUND: COc1ccc(C(=S)N2CCN(c3ccc(Cl)cc3)CC2)cc1
CLASS_LABEL: inactive

COMPOUND: CC1=C(C(=O)Nc2ccccc2)C(c2ccc3c(c2)OCO3)NC(=S)N1 (centres undefined)
CLASS_LABEL: inactive

COMPOUND: O=C1c2ccccc2C(=O)c2c1cc1c(c2[N+](=O)[O-])OCO1
CLASS_LABEL: inactive

COMPOUND: COc1cc(Cl)c(C)cc1NC(=O)c1cc2ccccc2cc1O
CLASS_LABEL: inactive

COMPOUND: CCN1C(=O)N(CC)C2C1NN=c1s/c(=C\c3ccc[nH]3)c(=O)n12 (centres undefined)
CLASS_LABEL: inactive

COMPOUND: CCN(CC)Cc1cc(Nc2ccnc3cc(Cl)ccc23)ccc1O
CLASS_LABEL: inactive

COMPOUND: CCCCNC(=O)Oc1ccc(/C(=C(/C)Cc2ccc(OC)cc2)c2ccc(OCCN3CCCCC3)cc2)cc1
CLASS_LABEL: inactive

COMPOUND: COc1cc(/C=C/C(=O)c2ccc(-n3cc(CN4CCN(c5cc6c(cc5F)c(=O)c(C(=O)O)cn6C5CC5)CC4)nn3)cc2)ccc1O
CLASS_LABEL: inactive

COMPOUND: COc1cc(-c2nc3c(ncc4ccc(=O)n(-c5ccccc5)c43)s2)cc(OC)c1OC
CLASS_LABEL: inactive

Origin of measurements: PubChem BioAssay (NCI)
